B1: SPDEF (parent)
chain: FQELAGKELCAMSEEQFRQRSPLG

Variants of: B1
Test: protein stability index of a GFP-peptide fusion (GPS, HEK-293T) (PSI 1-6); higher = more stable;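 note: lentivirally expressed fusions sorted by FACS into six bins by GFP to DsRed ratio, PSI derived from sequencing read proportions per bin multiplied by bin number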
Conditions: c terminus: a fixed tail appended
endpoint: protein stability index
Number only, please.

>>> reportedvalue("E3N")
3.09
>>> reportedvalue("K7M")
2.97
>>> reportedvalue("E15M")
2.19
>>> reportedvalue("L23G")
3.31
>>> reportedvalue("R20A")
2.79
>>> reportedvalue("S13R")
2.73
>>> reportedvalue("R20P")
2.58
>>> reportedvalue("F17N")
3.02
>>> reportedvalue("P22A")
2.64
>>> reportedvalue("R18G")
2.9

According to the records, this variant E8L displays protein stability index of 2.5

According to the records, this variant G24V displays protein stability index of 2.43

According to the records, this variant F1W displays protein stability index of 2.93

According to the records, this variant G24S displays protein stability index of 2.74

According to the records, this variant C10K displays protein stability index of 2.67

According to the records, this variant E8W displays protein stability index of 2.87

According to the records, this variant E3G displays protein stability index of 2.11
